The values you see were collected from ChEMBL document CHEMBL1201862.

Test system: RXF 393
assayProtocol: NCI tumour cell line growth inhibition, 48 h
Active and inactive are the calls of the source. Rule as the data show it: active = GI50 up to about 1.1 µM and inactive = higher.
Give your call using only these classes: active, inactive

1) O=C1C(c2ccccc2)=C(c2ccccc2)[C@H](c2ccccc2)[C@]1(Cc1nnn(-c2ccc([N+](=O)[O-])cc2)c1N1CCOCC1)c1ccccc1
inactive
2) COc1cc2c(cc1C[C@H]1[C@@H]3C[C@H]4c5c(c6ccccc6n5C)C[C@@H]([C@@H]3CO[C@]1(C)OC(C)=O)N4C)c1c(n2C)C2C[C@H]3C(C(C)=O)=COC[C@H]3[C@H](C1)N2C
inactive
3) NCCNCC(O)CO (centres undefined)
inactive

Enquiry: Outcome? O=C(/C=C/c1ccccc1)CC1OC(=O)c2ccccc21 (centres undefined)
Return: inactive

Enquiry: Write down the call the test reported for this compound. Item: Cc1ccc(S(=O)(=O)N/N=C(\CCN2CCCC2)CC(c2ccccc2)c2c(O)c3ccccc3oc2=O)cc1 (centres undefined)
Return: inactive

Enquiry: Check the results log: what was the call for N#Cc1c(O)c2ccccc2[nH]c1=O ?
Return: inactive

Enquiry: # outcome recorded in this test, key = OC1(c2cc3ccccc3s2)CCCCC1
Return: inactive

Enquiry: Returns: the outcome recorded for CC(=O)O[C@H]1C(=O)[C@@]2(C)[C@H]([C@H](OC(=O)c3cccc(C(F)(F)F)c3)[C@]3(O)C[C@H](OC(=O)[C@H](O)[C@@H](NC(=O)c4ccccc4)c4ccccc4)C(C)=C1C3(C)C)[C@]1(OC(C)=O)CO[C@@H]1C[C@@H]2O in this assay.
Return: active

Enquiry: # outcome recorded in this test, key = CC(C)(C)C1CCC2c3c([nH]c4ccccc34)C3C(=O)N(c4cc(Cl)ccc4Cl)C(=O)C3C2C1 (centres undefined)
Return: inactive

----------
Parameter: GI50. Scope: all listed entries.
System: OVCAR-5
assayProtocol: NCI tumour cell line growth inhibition, 48 h
The source made the active and inactive calls. Rule as the data show it: active = GI50 up to about 1.1 µM and inactive = higher.

Here are 5 compounds together with their reported answers.
1) COCC(=O)CP(=O)(OC)OC
> 100 µM (inactive)
2) CCOC(=O)P(=O)(O)c1ccc(N(C)Cc2ccccc2)cc1
> 100 µM (inactive)
3) COc1ccc(C(C#N)Cc2cc(OC)c(OC)c(OC)c2)cc1 (configuration not stated)
64.7 µM (inactive)
4) CC(=O)NC(c1nc2cc(C)c(C)cc2[nH]1)c1nc2cc(C)c(C)cc2[nH]1
41.7 µM (inactive)
5) Cc1cc(C)nc(NS(=O)(=O)c2ccc(Nc3c4ccccc4nc4c(C(=O)Nc5ccc(S(=O)(=O)N=C(N)N)cc5)cccc34)cc2)n1
51.8 µM (inactive)

Enquiry: Recorded GI50 for [B].c1ccc([Si](OCCN2CC2)(c2ccccc2)c2ccccc2)cc1 , please?
Return: 14.6 µM (inactive)

Enquiry: Any idea what its GI50 is? The compound is O=C1NN(c2ccccc2)C(=O)C2C3c4ccccc4C(c4ccccc43)C12 (configuration not stated)
Return: > 10 µM (inactive)

Enquiry: Given the compound O=[N+]([O-])c1ccc2c(c1)n1c(N3CCCC3)[n+]3ccccc3c1c1c3ccccn3c(N3CCCC3)[n+]21.[O-][Cl+3]([O-])([O-])[O-].[O-][Cl+3]([O-])([O-])[O-] , what is its reported GI50?
Return: > 100 µM (inactive)

Enquiry: What value of GI50 has been reported for the following compound? CCOC(=O)c1c(SCCN2CCCC2)n(-c2ccccc2)c(=S)n(-c2ccccc2)c1=O
Return: 26.9 µM (inactive)

Enquiry: Query (compound): CCOC(=O)C1=C(OC(OCC)C(CC)[Se]c2ccccc2)CCC1 (configuration not stated) ; field requested: GI50
Return: 23.1 µM (inactive)

Enquiry: Would you mind telling me what GI50 value was observed for N#CC1CC(c2ccccc2)Nc2cc(Cl)ccc2N1 (configuration not stated) ?
Return: > 100 µM (inactive)

Enquiry: Give the measured GI50 of C/C(=N\Nc1ccc([N+](=O)[O-])cc1[N+](=O)[O-])c1ccc2ccccc2n1 .
Return: > 100 µM (inactive)
